- subject of test: MBP-C7 (synthetic (Zif268 variant, mouse), UniProt P08046)
- assay comment: EMSA; 0.1 mM ZnCl2, RT
measured metric: Kd (nM)
Your answer is read as nM, so omit the unit and give the number.

[in] Name the recorded Kd of the item C7 site probe (dsDNA) DNA 1: GATGTATGTAGCGTGGGCGTAAGTAATGC DNA 2: GCATTACTTACGCCCACGCTACATACATC in your answer.
[out] 31.8
